SYSTEM: Akt2 (Homo sapiens)
Sequence (P31751 whole entry): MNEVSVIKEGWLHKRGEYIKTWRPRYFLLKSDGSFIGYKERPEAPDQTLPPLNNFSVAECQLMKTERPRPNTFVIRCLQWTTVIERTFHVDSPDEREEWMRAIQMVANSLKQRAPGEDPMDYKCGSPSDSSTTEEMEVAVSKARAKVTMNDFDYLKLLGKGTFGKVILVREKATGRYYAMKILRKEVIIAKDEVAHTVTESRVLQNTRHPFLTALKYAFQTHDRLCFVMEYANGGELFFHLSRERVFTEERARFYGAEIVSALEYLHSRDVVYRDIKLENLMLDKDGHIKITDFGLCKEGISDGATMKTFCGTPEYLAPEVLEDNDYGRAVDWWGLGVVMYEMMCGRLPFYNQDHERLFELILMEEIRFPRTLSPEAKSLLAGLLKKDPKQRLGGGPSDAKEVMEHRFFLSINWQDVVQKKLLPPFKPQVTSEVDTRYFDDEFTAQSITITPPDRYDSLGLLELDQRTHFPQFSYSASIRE
TEST: PhosphoSens continuous fluorometric kinetic enzyme assay
CONDITION_DESCRIPTION: read-out: kinact Akt2, individual determinations, single replicates
PARAMETER: kinact (s⁻¹)

Known kinact results, listed for orientation:
>  <STRUCTURE_NOTATION>
C=CC(=O)Nc1ccc2[nH]c(=O)n(C3CCN(Cc4ccc(-c5ncc(C(=O)Nc6cnn(C)c6)cc5-c5ccccc5)cc4)CC3)c2c1

>  <SYSTEM>
Akt2 (Homo sapiens)

>  <UNIT_TAG>
s⁻¹

>  <kinact>
0.000317

$$$$
>  <STRUCTURE_NOTATION>
C=CC(=O)Nc1ccc2[nH]c(=O)n(C3CCN(Cc4ccc(-c5ncc(C(=O)Nc6cccc(N)c6)cc5-c5ccccc5)cc4)CC3)c2c1

>  <SYSTEM>
Akt2 (Homo sapiens)

>  <UNIT_TAG>
s⁻¹

>  <kinact>
0.00015

$$$$
>  <STRUCTURE_NOTATION>
C=CC(=O)Nc1ccc2[nH]c(=O)n(C3CCN(Cc4ccc(-c5ncc(Cc6cn[nH]c6)cc5-c5ccccc5)cc4)CC3)c2c1

>  <SYSTEM>
Akt2 (Homo sapiens)

>  <UNIT_TAG>
s⁻¹

>  <kinact>
0.0002

$$$$
>  <STRUCTURE_NOTATION>
C=CC(=O)Nc1ccc2[nH]c(=O)n(C3CCN(Cc4ccc(-c5ncc(Cc6ccc(N)nc6)cc5-c5ccccc5)cc4)CC3)c2c1

>  <SYSTEM>
Akt2 (Homo sapiens)

>  <UNIT_TAG>
s⁻¹

>  <kinact>
0.000383

$$$$
>  <STRUCTURE_NOTATION>
C=CC(=O)Nc1ccc2[nH]c(=O)n(C3CCN(Cc4ccc(-c5ncc(Cn6ccnc6)cc5-c5ccccc5)cc4)CC3)c2c1

>  <SYSTEM>
Akt2 (Homo sapiens)

>  <UNIT_TAG>
s⁻¹

>  <kinact>
0.000217

$$$$
>  <STRUCTURE_NOTATION>
C=CC(=O)Nc1ccc2[nH]c(=O)n(C3CCN(Cc4ccc(-c5ncc(Cc6cccnc6)cc5-c5ccccc5)cc4)CC3)c2c1

>  <SYSTEM>
Akt2 (Homo sapiens)

>  <UNIT_TAG>
s⁻¹

>  <kinact>
0.000267

$$$$

(I) C=CC(=O)Nc1ccc2[nH]c(=O)n(C3CCN(Cc4ccc(-c5ncc(C(=O)NCC(C)C)cc5-c5ccccc5)cc4)CC3)c2c1
(II) C=CC(=O)Nc1ccc2[nH]c(=O)n(C3CCN(Cc4ccc(-c5ncc(C(=O)Nc6cccnc6)cc5-c5ccccc5)cc4)CC3)c2c1
Request: Form: Entry with minimum kinact (choose one): I / II Your answer should be the label attached to the chosen record.
Response: I
(I: 0.000133 s⁻¹, II: 0.000283 s⁻¹)

---

Test system: Ba/F3^myr-Akt2 cells
TEST: CellTiter-Glo cell viability assay
CONDITION_DESCRIPTION: Mus musculus, read-out: CTG BaF3myr-Akt2, Mean, mean of replicates
PARAMETER: EC50 (µM)

>  <STRUCTURE_NOTATION>
C=CC(=O)Nc1ccc2[nH]c(=O)n(C3CCN(Cc4ccc(-c5ncc(Cc6ccc(N)nc6)cc5-c5ccccc5)cc4)CC3)c2c1

>  <EC50, µM>
4.09

$$$$

(I) C=CC(=O)Nc1ccc2[nH]c(=O)n(C3CCN(Cc4ccc(-c5ncc(C(=O)Nc6cnn(C)c6)cc5-c5ccccc5)cc4)CC3)c2c1
(II) C=CC(=O)Nc1ccc2[nH]c(=O)n(C3CCN(Cc4ccc(-c5ncc(Cc6cccnc6)cc5-c5ccccc5)cc4)CC3)c2c1
Request: Form: Entry with minimum EC50 (choose one): I / II Your answer should be the label attached to the chosen record.
Response: II
(II: 2.23 µM, I: 7.18 µM)

Provenance of the data: paper PMC8421423
